B1: DBP-RII with C-terminally fused GFP, wild type, on the surface of HEK293T cells [Plasmodium vivax] / Duffy antigen/receptor for chemokines (DARC) on human red blood cells [human (endogenous in RBCs)] (parent)
chain 1: ASNTVMKNCNYKRKRRERDWDCNTKKDVCIPDRRYQLCMKELTNLVNNTDTNFHRDITFRKLYLKRKLIYDAAVEGDLLLKLNNYRYNKDFCKDIRWSLGDFGDIIMGTDMEGIGYSKVVENNLRSIFGTDEKAQQRRKQWWNESKAQIWTAMMYSVKKRLKGNFIWICKLNVAVNIEPQIYRWIREWGRDYVSELPTEVQKLKEKCDGKINYTDKKVCKVPPCQNACKSYDQWITRKKNQWDVLSNKFISVKNAEKVQTAGIVTPYDILKQELDEFNEVAFENEINKRDGAYIELCVCSVEEAKKNTQEVVTNVDN
chain 2: MGNCLHRAELSPSTENSSQLDFEDVWNSSYGVNDSFPDGDYGANLEAAAPCHSCNLLDDSALPFFILTSVLGILASSTVLFMLFRPLFRWQLCPGWPVLAQLAVGSALFSIVVPVLAPGLGSTRSSALCSLGYCVWYGSAFAQALLLGCHASLGHRLGAGQVPGLTLGLTVGIWGVAALLTLPVTLASGASGGLCTLIYSTELKALQATHTVACLAIFVLLPLGLFGAKGLKKALGMGPGPWMNILWAWFIFWWPHGVVLGLDFLVRSKLLLLSTCLAQQALDLLLNLAEALAILHCVATPLLLALFCHQATRTLLPSLPLPEGWSSHLDTLGSKS

- Variants of: B1
- PROCEDURE_DETAILS: red blood cell rosetting (RBC binding) assay with DBP-RII-GFP expressed on HEK293 cells
- REPORTED_CONDITIONS: parent: 100, read off a plot
Hi, to clarify the labels: criterion met covers percent of parent from 40 % Binding upward, criterion not met covers anything below 40 % Binding.

# example entries with known answers
chain 1 D56R = criterion met
chain 1 D56W = criterion met

Now consider a different variant.
Exam item: decide whether the reported percent of parent for chain 1 Y155A is at least 40 % Binding.
criterion not met
